Listing of recorded Plant response rating, Blackgrass by entry.
Test system: blackgrass (Alopecurus myosuroides)
Assay: Test B postemergence plant response
Format: in vivo
Conditions: 125 g ai/ha, postemergence; 0 to 100 scale, 0 no effect, 100 complete control
endpoint: Plant response rating, Blackgrass

compound=Clc1cnc(Oc2ccccc2-c2ccsc2)nc1 measured_value=0
compound="FC(Cl)c1cc(-c2ccccc2Oc2ncc(Cl)cn2)no1 (stereo not drawn)" measured_value=30
compound=FC(F)c1cc(-c2c(Cl)cccc2Oc2ncc(Cl)cn2)no1 measured_value=80
compound=Cn1nnc(-c2ccccc2Oc2ncc(Cl)cn2)n1 measured_value=40
compound=FC(F)(F)Cn1cnc(-c2ccccc2Oc2ncc(Cl)cn2)c1 measured_value=0
compound=CC(=O)c1cc(-c2ccccc2Oc2ncc(Br)cn2)no1 measured_value=10
compound=FC(F)(F)c1csc(-c2ccccc2Oc2ncc(Br)cn2)n1 measured_value=0
compound=CC(C)n1ncnc1-c1ccccc1Oc1ncc(Cl)cn1 measured_value=0
compound=FC(F)(Br)c1cc(-c2ccccc2Oc2ncc(Cl)cn2)no1 measured_value=30

* * *

Test system: wheat (Triticum aestivum)
Assay: Test B pre-/postemergence plant response
Assay type: in vivo
Details: 125 g ai/ha, postemergence; 0 to 100 scale, 0 no effect, 100 complete control
endpoint: Plant response rating, Wheat

entry_smiles=Cn1nnnc1-c1ccccc1Oc1ncc(Cl)cn1 target_desc="wheat (Triticum aestivum)" measured_value=0
entry_smiles=Cn1cc(-c2ccccc2Oc2ncc(Cl)cn2)nn1 target_desc="wheat (Triticum aestivum)" measured_value=0
entry_smiles=N#Cc1cccc(Oc2ncc(F)cn2)c1-c1ccc(Cl)cn1 target_desc="wheat (Triticum aestivum)" measured_value=0
entry_smiles=FC(F)(F)c1cnc(Oc2ccccc2-c2cncs2)nc1 target_desc="wheat (Triticum aestivum)" measured_value=0
entry_smiles=Clc1cnc(Oc2ccccc2-c2nccs2)nc1 target_desc="wheat (Triticum aestivum)" measured_value=0
entry_smiles=CC(F)(F)c1cc(-c2ccccc2Oc2ncc(Cl)cn2)no1 target_desc="wheat (Triticum aestivum)" measured_value=50
entry_smiles=Cc1nnc(-c2ccccc2Oc2ncc(Cl)cn2)o1 target_desc="wheat (Triticum aestivum)" measured_value=0
entry_smiles=Brc1cnc(Oc2ccccc2-c2cc(Br)no2)nc1 target_desc="wheat (Triticum aestivum)" measured_value=0
entry_smiles=FC(F)(Br)c1cc(-c2ccccc2Oc2ncc(Cl)cn2)no1 target_desc="wheat (Triticum aestivum)" measured_value=30
entry_smiles=Clc1cnc(Oc2ccccc2-c2cccs2)nc1 target_desc="wheat (Triticum aestivum)" measured_value=0
entry_smiles=CC(=O)c1cc(-c2ccccc2Oc2ncc(Cl)cn2)on1 target_desc="wheat (Triticum aestivum)" measured_value=0
entry_smiles=FC(F)c1cc(-c2c(Cl)cccc2Oc2ncc(Cl)cn2)no1 target_desc="wheat (Triticum aestivum)" measured_value=40
entry_smiles=FC(Cl)(Cl)c1cc(-c2ccccc2Oc2ncc(Cl)cn2)no1 target_desc="wheat (Triticum aestivum)" measured_value=10
entry_smiles=Cn1ccc(-c2ccccc2Oc2ncc(Cl)cn2)n1 target_desc="wheat (Triticum aestivum)" measured_value=0
entry_smiles=FC(F)(F)Cn1cnc(-c2ccccc2Oc2ncc(Cl)cn2)c1 target_desc="wheat (Triticum aestivum)" measured_value=0
entry_smiles=N#Cc1cc(-c2c(F)cccc2Oc2ncc(Cl)cn2)no1 target_desc="wheat (Triticum aestivum)" measured_value=20
entry_smiles=Clc1ccc(-c2c(Br)cccc2Oc2ncc(Cl)cn2)nc1 target_desc="wheat (Triticum aestivum)" measured_value=0

* * *

Test system: Italian ryegrass (Lolium multiflorum)
Assay: Test B pre-/postemergence plant response
Assay type: in vivo
Conditions: 31 g ai/ha, Postemergence; 0 to 100 scale, 0 no effect, 100 complete control
endpoint: Plant response rating, Ryegrass, Italian

entry_smiles=CC(C)n1cnc(-c2ccccc2Oc2ncc(Cl)cn2)n1 endpoint="Plant response rating, Ryegrass, Italian" measured_value=0
entry_smiles=N#Cc1cccc(Oc2ncc(Cl)cn2)c1-c1ccsc1 endpoint="Plant response rating, Ryegrass, Italian" measured_value=0
entry_smiles=Fc1ccc(Oc2ncc(Cl)cn2)c(-c2cc(C(F)F)on2)c1F endpoint="Plant response rating, Ryegrass, Italian" measured_value=20
entry_smiles=FC(F)c1cc(-c2c(Cl)cccc2Oc2ncc(Cl)cn2)on1 endpoint="Plant response rating, Ryegrass, Italian" measured_value=30
entry_smiles=Fc1cc(F)c(-c2cc(C(F)F)no2)c(Oc2ncc(Cl)cn2)c1 endpoint="Plant response rating, Ryegrass, Italian" measured_value=0
entry_smiles=Fc1ccc(Oc2ncc(Cl)cn2)c(-c2cc(C(F)F)on2)c1Br endpoint="Plant response rating, Ryegrass, Italian" measured_value=10
entry_smiles=Clc1cnc(Oc2ccccc2-c2cc(C(Cl)Cl)on2)nc1 endpoint="Plant response rating, Ryegrass, Italian" measured_value=0
entry_smiles=CCn1nc(C(F)(F)F)cc1-c1c(C#N)cccc1Oc1ncc(Cl)cn1 endpoint="Plant response rating, Ryegrass, Italian" measured_value=0

* * *

Tested on: lambsquarters (Chenopodium album)
Test: Test D pre-/postemergence plant response
Format: in vivo
Details: Preemergence, 125 g ai/ha
endpoint: Plant response rating (scale 0 to 100), Lambsquarters

entry_smiles=COc1cccc(Oc2ncc(Cl)cn2)c1-c1cc(C(F)(F)F)no1 measured_value=90
entry_smiles=Cc1cc(-c2ccccc2Oc2ncc(Cl)cn2)on1 measured_value=100
entry_smiles=Fc1cccc(Oc2ncc(Br)cn2)c1-c1cc(C(F)F)on1 measured_value=98
entry_smiles=FC(F)(F)c1cc(-c2ccccc2Oc2ncc(Cl)cn2)ncn1 measured_value=85

* * *

Tested on: field bindweed (Convolvulus arvensis)
Assay: Test F pre-/postemergence plant response
Assay type: in vivo
Details: Convolvulus arvensis, pre-emergence; 62 g ai/ha Preemergence; scale 0 to 100; read-out: Plant response rating, Field Bindweed
endpoint: pest or weed control at 62 g/ha (%)

compound="FC(F)(F)c1cc(-c2ccccc2Oc2ncc(Cl)cn2)no1 [Compound 200]" target_desc="field bindweed (Convolvulus arvensis)" endpoint="pest or weed control at 62 g/ha" measured_value=30
compound="Fc1cccc(Oc2ncc(Cl)cn2)c1-c1cc(C(F)F)no1 [Compound 144]" target_desc="field bindweed (Convolvulus arvensis)" endpoint="pest or weed control at 62 g/ha" measured_value=65
compound="FC(F)c1cc(-c2ccccc2Oc2ncc(Cl)cn2)no1 [Compound 35]" target_desc="field bindweed (Convolvulus arvensis)" endpoint="pest or weed control at 62 g/ha" measured_value=50
compound="Fc1cccc(Oc2ncc(Cl)cn2)c1-c1cc(C(F)F)on1 [Compound 55]" target_desc="field bindweed (Convolvulus arvensis)" endpoint="pest or weed control at 62 g/ha" measured_value=10
compound="Fc1cccc(Oc2ncc(Cl)cn2)c1-c1cc(C(F)(F)F)on1 [Compound 168]" target_desc="field bindweed (Convolvulus arvensis)" endpoint="pest or weed control at 62 g/ha" measured_value=50

* * *

Listing of recorded Plant response rating, Lambsquarters by entry.
System: lambsquarters (Chenopodium album)
Experiment: Test D pre-/postemergence plant response
Assay type: in vivo
Details: Preemergence; 16 g ai/ha; scale 0 to 100 (0 no effect, 100 complete control)
endpoint: Plant response rating, Lambsquarters

entry_smiles=Fc1ccc(Oc2ncc(Cl)cn2)c(-c2cc(C(F)F)on2)c1F measured_value=85
entry_smiles=FC(F)c1cc(-c2c(Cl)cccc2Oc2ncc(Cl)cn2)on1 measured_value=70
entry_smiles=FC(F)(Cl)c1cc(-c2ccccc2Oc2ncc(Cl)cn2)no1 measured_value=70
entry_smiles=FC(F)Oc1cccc(Oc2ncc(Cl)cn2)c1-c1cc(C(F)F)on1 measured_value=75

* * *

System: velvetleaf (Abutilon theophrasti)
Assay: Test D pre-/postemergence plant response
Assay type: in vivo
Settings: Postemergence, 125 g ai/ha; scale 0 to 100, 0 no effect, 100 complete control
Mark 1 (yes) for reported Plant response rating, Velvetleaf of 50 or greater; mark 0 (no) for anything smaller.

entry_smiles=FC(F)(F)c1cc(-c2c(Br)cccc2Oc2ncc(Cl)cn2)no1 target_desc="velvetleaf (Abutilon theophrasti)" group_label="0 (no)"
entry_smiles=Fc1cccc(Oc2ncc(Cl)cn2)c1-c1cc(C2CC2)on1 target_desc="velvetleaf (Abutilon theophrasti)" group_label="1 (yes)"
entry_smiles=FC(F)(Cl)c1cc(-c2ccccc2Oc2ncc(Cl)cn2)no1 target_desc="velvetleaf (Abutilon theophrasti)" group_label="1 (yes)"
entry_smiles=FC(Cl)(Cl)c1cc(-c2ccccc2Oc2ncc(Cl)cn2)no1 target_desc="velvetleaf (Abutilon theophrasti)" group_label="1 (yes)"
entry_smiles=Clc1cnc(Oc2ccccc2-c2cc(Cl)sn2)nc1 target_desc="velvetleaf (Abutilon theophrasti)" group_label="1 (yes)"
entry_smiles=Clc1cnc(Oc2ccccc2-c2cc(C3CC3)on2)nc1 target_desc="velvetleaf (Abutilon theophrasti)" group_label="1 (yes)"

* * *

Listing of recorded Plant response rating, Corn by entry.
System: corn (Zea mays)
Experiment: Test B pre-/postemergence plant response
Assay type: in vivo
Details: Preemergence, 500 g ai/ha; 0 to 100 scale where 0 is no effect and 100 is complete control
endpoint: Plant response rating, Corn

compound="Clc1cnc(Oc2ccccc2-c2cc(Cl)cc(Cl)c2)nc1 [Compound 41]" target_desc="corn (Zea mays)" endpoint="Plant response rating, Corn" measured_value=0
compound="Clc1ccc(-c2c(Br)cccc2Oc2ncc(Cl)cn2)nc1 [Compound 135]" target_desc="corn (Zea mays)" endpoint="Plant response rating, Corn" measured_value=0
compound="O=[N+]([O-])c1cc(Cl)cnc1-c1ccccc1Oc1ncc(Cl)cn1 [Compound 201]" target_desc="corn (Zea mays)" endpoint="Plant response rating, Corn" measured_value=0
compound="FC(F)(F)c1cc(-c2ccccc2Oc2ncc(Br)cn2)on1 [Compound 64]" target_desc="corn (Zea mays)" endpoint="Plant response rating, Corn" measured_value=20
compound="Cn1nc(C(F)(F)F)cc1-c1ccccc1Oc1ncc(Br)cn1 [Compound 30]" target_desc="corn (Zea mays)" endpoint="Plant response rating, Corn" measured_value=0
compound="Cc1ccc(Oc2ncc(Cl)cn2)c(-c2cccc(OC(F)(F)F)c2)c1 [Compound 44]" target_desc="corn (Zea mays)" endpoint="Plant response rating, Corn" measured_value=0
compound="Clc1cnc(Oc2ccccc2-c2nccs2)nc1 [Compound 199]" target_desc="corn (Zea mays)" endpoint="Plant response rating, Corn" measured_value=0
